assay: small-molecule binders of probe aInhba, primary screen, biochemical, small-molecule microarray, 635/667 nm fluorescence (AID 1148); settings: higher = more signal;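 also: score merges 667nm spot fluorescence with signal-to-noise for antibody binding to printed compounds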
Each record's class is read off its composite z-score using these ranges: bottom bin: < 0.05; middle bin: ≥ 0.05 and < 0.3; top bin: ≥ 0.3

>  <compound>
CC(C)NC(=O)[C@@]1(Cc2ccccc2I)c2ccccc2C(=O)N(Cc2ccccc2)[C@H]1c1ccc(CO)cc1

>  <class assignment>
top bin

$$$$
>  <compound>
O=C1N(CCS(=O)(=O)c2ccccc2)Cc2ccccc2C[C@]12N=C(c1ccc(OCCCO)cc1)O[C@@H]2c1ccccc1

>  <class assignment>
top bin

$$$$
>  <compound>
COCCOC(=O)N1C(=O)[C@@]2(c3cc(C#CC4(O)CCCCCC4)ccc31)[C@H](C(=O)N1CCCCCCC1)[C@H]1C(=O)O[C@H](c3ccccc3)[C@H](c3ccccc3)N1[C@@H]2c1ccccc1OCCO

>  <class assignment>
top bin

$$$$
>  <compound>
C=CCOC(=O)[C@@H]1[C@H]2C(=O)O[C@H](c3ccccc3)[C@H](c3ccccc3)N2[C@H](c2ccc(OCCOC(=O)[C@@H]3C[C@@H]4C(=O)N[C@@H](Cc5ccccc5)C(=O)N4[C@@H]3c3cccc(OCCO)c3)cc2)[C@@]12C(=O)Nc1ccc(I)cc12

>  <class assignment>
top bin

$$$$
>  <compound>
COc1ccc(CCNC(=O)[C@@]2(c3ccc([N+](=O)[O-])cc3)CC(=O)N(CC34CC5CC(CC(C5)C3)C4)[C@@H]2c2ccc(CO)cc2)cc1

>  <class assignment>
top bin

$$$$
>  <compound>
COCCCNC(=O)[C@@]1(CCC(=O)OC(C)(C)C)N=C(c2ccc(OCCCO)cc2)O[C@H]1c1ccccc1CN=[N+]=[N-]

>  <class assignment>
top bin

$$$$
>  <compound>
CC(C)C[C@@H]1NC(=O)[C@H]2C[C@@H](C(=O)NCCCCCCNC(=O)CS)[C@@H](c3cccc(OCCO)c3)N2C1=O

>  <class assignment>
middle bin

$$$$
>  <compound>
CCCN1C(=O)[C@]2(COC(c3ccc(OCCCO)cc3)=N2)Cc2ccccc21

>  <class assignment>
middle bin

$$$$
>  <compound>
COc1cccc(C(=O)O[C@H]2CC[C@]3(C)C4=C(CCC3C2(C)C)[C@]2(C)CC[C@H]([C@H](C)CCCC(C)C)[C@@]2(C)CC4)c1 (some centres undefined)

>  <class assignment>
bottom bin

$$$$
>  <compound>
[N-]=[N+]=Nc1ccccc1[C@H]1OC(c2ccc(OCCCO)cc2)=N[C@@]1(CCS(=O)(=O)c1ccccc1)C(=O)O

>  <class assignment>
middle bin

$$$$
>  <compound>
O=C(CCN1CCOCC1)c1cccc(O)c1

>  <class assignment>
bottom bin

$$$$
>  <compound>
CC(C)N1CC=CC23O[C@@H]4C=CCOC(=O)[C@@H]4[C@H]2C(=O)N(CCO)[C@@H]3C1=O (some centres undefined)

>  <class assignment>
bottom bin

$$$$
>  <compound>
O=C/C=C/c1ccc2c(c1)OCO2

>  <class assignment>
bottom bin

$$$$
>  <compound>
COC(=O)[C@@]1(Cc2ccc(F)cc2)[C@H]2c3cc(C(=O)N4CCCC4)n(Cc4cccc5ccccc45)c3C[C@H]2CN1C(=O)c1ccccc1

>  <class assignment>
top bin

$$$$

---

assay: small-molecule microarray binders of probe aXIP, primary screen, biochemical, NeuroSMM set, 635/667 nm fluorescence (AID 1119); conditions: higher = more signal, called active from +8 up or from −8 down;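 also: probe is the protein aXip251-270 applied at 1 µg/mL to compound-printed slides; binding of probe to printed compounds measured as 667 nm fluorescence plus signal to noise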
composite Z-score values for the molecules below.
outcome measure: composite Z-score

>  <molecule>
COC(=O)[C@@]1(Cc2ccc(OC)cc2)[C@H]2c3cc(C(=O)N(C)C)n(Cc4c(OC)[nH]cc(C)c4=O)c3C[C@H]2CN1C(=O)c1ccccc1

>  <value observed>
0.0562

$$$$
>  <molecule>
C=CCOC(=O)[C@@H]1[C@H]2C(=O)O[C@H](c3ccccc3)[C@H](c3ccccc3)N2[C@H](c2ccc(OCCOC(=O)[C@@H]3C[C@@H]4C(=O)NCC(=O)N4[C@@H]3c3cccc(OCCO)c3)cc2)[C@@]12C(=O)Nc1ccc(I)cc12

>  <value observed>
-0.0135

$$$$
>  <molecule>
CCCNC(=O)[C@@H]1c2ccccc2C(=O)N(Cc2ccccc2)[C@H]1c1ccc(CO)cc1

>  <value observed>
0.842

$$$$
>  <molecule>
O=C(CS)NCCCCCCNC(=O)[C@H]1C[C@H]2C(=O)N3CCC[C@H]3C(=O)N2[C@H]1c1cccc(OCCO)c1

>  <value observed>
-0.254

$$$$
>  <molecule>
CC(=O)C1=CCC(c2ccccc2)N(S(=O)(=O)c2ccc(C)cc2)C1 (centres undefined)

>  <value observed>
-0.685

$$$$
>  <molecule>
N#Cc1ccc(NN2C(C(O)c3cccs3)C=CC3C(=O)N(c4ccccc4)C(=O)C32)cc1 (centres undefined)

>  <value observed>
0.388

$$$$
>  <molecule>
CC(C)CNC(=O)[C@@]1(c2ccc([N+](=O)[O-])cc2)CC(=O)N(CC23CC4CC(CC(C4)C2)C3)[C@@H]1c1ccc(CO)cc1

>  <value observed>
0.0585

$$$$
>  <molecule>
O=C1O[C@H](c2ccccc2)[C@H](c2ccccc2)N2[C@H]1[C@@H](C(=O)Nc1nc3ccccc3s1)[C@]1(C(=O)Nc3ccccc31)[C@H]2c1ccc(O)cc1

>  <value observed>
0.0275

$$$$
>  <molecule>
CCCNC(=O)[C@@]1(c2ccc([N+](=O)[O-])cc2)CC(=O)N(CC23CC4CC(CC(C4)C2)C3)[C@@H]1c1ccc(CO)cc1

>  <value observed>
-0.639

$$$$
>  <molecule>
COc1ccc(C(O)C2C=CC3C(=O)N(c4ccccc4)C(=O)C3N2Nc2ccc([N+](=O)[O-])cc2)cc1OCc1ccccc1 (centres undefined)

>  <value observed>
-0.114

$$$$
>  <molecule>
C[C@]1(C(=O)NCc2ccccc2)c2ccccc2C(=O)N(Cc2cc(F)cc(C(F)(F)F)c2)[C@H]1c1ccc(CO)cc1

>  <value observed>
-0.146

$$$$
>  <molecule>
C=C(COC)/C(=C/C[C@H](OC(=O)c1ccncc1)c1cccc(OCCO)c1)c1cc(C(=O)OC)ccc1OC

>  <value observed>
0.415

$$$$
>  <molecule>
O=C1O[C@@H](c2ccccc2)[C@@H](c2ccccc2)N2[C@@H](c3ccc(OCCO)cc3)[C@]3(C(=O)Nc4ccccc43)[C@@H](C(=O)Nc3nc4ccccc4s3)[C@H]12

>  <value observed>
0.755

$$$$
>  <molecule>
COc1ccc([Si](C)(C)[C@@H]2[C@@H](CC(=O)N3CCC[C@H]3CO)O[C@]3(C(=O)N(C)c4c(Br)cc(C)cc43)[C@H]2C)cc1

>  <value observed>
0.306

$$$$

---

assay: basal RPMI8226 mitochondrial membrane potential changes, profiling panel, cell-based, JC-1 fluorescence, 24 h, 100 nL compound (AID 1169); settings: RPMI8226 myeloma, JC-1 mitochondrial potential fluorescence, higher = more signal; also: test concentration not given here
Returns one of 1 or 0; 1 when z-score is >= -0.5.

>  <molecular string>
COc1ccc(C#Cc2ccc3c(c2)[C@]2(C(=O)N3)[C@H](c3ccc(O)cc3)N3[C@H](c4ccccc4)[C@H](c4ccccc4)OC(=O)[C@H]3[C@@H]2C(=O)N2CCCCCCC2)cc1

>  <class assignment>
0

$$$$
>  <molecular string>
COCCOC(=O)N1C(=O)[C@@]2(c3cc(C#Cc4ccc(OC)cc4)ccc31)[C@H](C(=O)N1CCN(c3ncccn3)CC1)[C@H]1C(=O)O[C@H](c3ccccc3)[C@H](c3ccccc3)N1[C@@H]2c1ccc(O)cc1

>  <class assignment>
1

$$$$
>  <molecular string>
Cc1ccc(S[C@]2(C(=O)NC3CC3)CC(=O)N(Cc3ccccc3)[C@@H]2c2ccc(CO)cc2)cc1

>  <class assignment>
1

$$$$
>  <molecular string>
O=C1N(CCS(=O)(=O)c2ccccc2)Cc2ccccc2[C@H]2OC(c3ccc(OCCCO)cc3)=N[C@@]12CCS(=O)(=O)c1ccccc1

>  <class assignment>
0

$$$$
>  <molecular string>
C=C(COC)/C(=C/C[C@H](OC(=O)c1ccncc1)c1cccc(OCCO)c1)c1cc(C(=O)OC)ccc1OC

>  <class assignment>
1

$$$$
>  <molecular string>
COC(=O)[C@]1(Cc2ccccc2N=[N+]=[N-])N=C(c2ccc(OCCCO)cc2)O[C@@H]1c1ccccc1N=[N+]=[N-]

>  <class assignment>
0

$$$$
